Assay: Intrinsic dissolution rate in pH 2.5 HCl/NaCl aqueous solution
Assay type: physicochemical
Conditions: 15 min; pH 2.5 HCl/NaCl, 37° C., 0.5 cm^2 pellet
Sorting guide: entries reporting Cumulative dissolution beneath 4 mg go in the True pile, the rest go in the False pile.

# COMPOUND, CATEGORY_LABEL
data = [
    ("CC#CC(=O)N1CCC[C@H]1c1nc(-c2ccc(C(=O)Nc3ccccn3)cc2)c2c(N)nccn12 [Form A]", "True"),
    ("CC#CC(=O)N1CCC[C@H]1c1nc(-c2ccc(C(=O)Nc3ccccn3)cc2)c2c(N)nccn12 [Form D]", "True"),
    ("CC#CC(=O)N1CCC[C@H]1c1nc(-c2ccc(C(=O)Nc3ccccn3)cc2)c2c(N)nccn12 [Form CS15]", "False"),
    ("CC#CC(=O)N1CCC[C@H]1c1nc(-c2ccc(C(=O)Nc3ccccn3)cc2)c2c(N)nccn12 [Form G]", "True"),
]

IN: Hi there! Is Cumulative dissolution for CC#CC(=O)N1CCC[C@H]1c1nc(-c2ccc(C(=O)Nc3ccccn3)cc2)c2c(N)nccn12 [Form I in WO2017002095A1, reference compound] below 4 mg, do you know?
OUT: True

====

Assay: Intrinsic dissolution rate in pH 2.5 HCl/NaCl aqueous solution
Format: physicochemical
Settings: pH 2.5 HCl/NaCl solution
MEASURED_PROPERTY: IDR relative to that of Form I in WO2017002095A1 (times)
Report the figure in times without appending any unit label.

# example entries with known answers
# COMPOUND, QUANTITATIVE_RESULT
data = [
    ("CC#CC(=O)N1CCC[C@H]1c1nc(-c2ccc(C(=O)Nc3ccccn3)cc2)c2c(N)nccn12 [Form D]", 1.1),
    ("CC#CC(=O)N1CCC[C@H]1c1nc(-c2ccc(C(=O)Nc3ccccn3)cc2)c2c(N)nccn12 [Form CS15]", 1.6),
    ("CC#CC(=O)N1CCC[C@H]1c1nc(-c2ccc(C(=O)Nc3ccccn3)cc2)c2c(N)nccn12 [Form F]", 1.3),
]

IN: Could you tell me which IDR relative to that of Form I in WO2017002095A1 is on file for CC#CC(=O)N1CCC[C@H]1c1nc(-c2ccc(C(=O)Nc3ccccn3)cc2)c2c(N)nccn12 [Form A] ?
OUT: 1.2

IN: // returns reported IDR relative to that of Form I in WO2017002095A1 for input CC#CC(=O)N1CCC[C@H]1c1nc(-c2ccc(C(=O)Nc3ccccn3)cc2)c2c(N)nccn12 [Form G]
OUT: 1.2

====

Parameter Cumulative dissolution: see the listing below.
Experiment: Intrinsic dissolution rate in pH 2.5 HCl/NaCl aqueous solution
Type: physicochemical
Conditions: 35 min; pH 2.5 HCl/NaCl, 37° C., 0.5 cm^2 pellet
Method: Approximately 200 mg of Form A and Form I in WO2017002095A1 were added into the die, compressed at 10 kN and held for 1 minute to obtain a pellet having a surface area of 0.5 cm^2. The whole tool with the pellet was transferred to a dissolution apparatus to test the intrinsic dissolution rate. The slope (mg/min) was calculated according to the data within 0-45 minutes. Intrinsic dissolution rate (IDR, mg/min/cm^2) was further calculated according to the slope. […]
Give the value, in units of mg, as a plain number.

Example cases with answers are listed next.
# COMPOUND, MEASURED_PROPERTY, QUANTITATIVE_RESULT
records = [
    ("CC#CC(=O)N1CCC[C@H]1c1nc(-c2ccc(C(=O)Nc3ccccn3)cc2)c2c(N)nccn12 [Form CS15]", "Cumulative dissolution", 10.60),
    ("CC#CC(=O)N1CCC[C@H]1c1nc(-c2ccc(C(=O)Nc3ccccn3)cc2)c2c(N)nccn12 [Form I in WO2017002095A1, reference compound]", "Cumulative dissolution", 6.40),
    ("CC#CC(=O)N1CCC[C@H]1c1nc(-c2ccc(C(=O)Nc3ccccn3)cc2)c2c(N)nccn12 [Form A]", "Cumulative dissolution", 7.83),
    ("CC#CC(=O)N1CCC[C@H]1c1nc(-c2ccc(C(=O)Nc3ccccn3)cc2)c2c(N)nccn12 [Form G]", "Cumulative dissolution", 7.65),
    ("CC#CC(=O)N1CCC[C@H]1c1nc(-c2ccc(C(=O)Nc3ccccn3)cc2)c2c(N)nccn12 [Form D]", "Cumulative dissolution", 7.36),
]

We next turn to a different compound, shown below.
IN: Would you mind telling me what Cumulative dissolution value was observed for CC#CC(=O)N1CCC[C@H]1c1nc(-c2ccc(C(=O)Nc3ccccn3)cc2)c2c(N)nccn12 [Form F] ?
OUT: 8.74
